Cited source for all entries: ChEMBL document CHEMBL1961873

Would you mind telling me the reported inhibition of each entry?
- Study system: Serine/threonine-protein kinase Sgk2 (Homo sapiens);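 also: each value is a mean percent inhibition of SGK2 from the GSK PKIS kinase screen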
- Run parameters: at 0.1 µM
Please reply with the bare figure in % and do not write the unit itself.

q: What reported inhibition corresponds to `Cc1ccc(C(=O)NC2CC2)cc1-c1ccc2[nH]ncc2c1` on Serine/threonine-protein kinase Sgk2 (Homo sapiens)?
a: -5.03

q: Next entry: `Cc1ccc2c(-c3ccnc(Nc4ccc5c(c4)OCCO5)n3)c(-c3ccc(C(F)(F)F)cc3)nn2n1`
a: -0.62

q: Next entry: `FC(F)(F)c1ccc(-c2nn3ncccc3c2-c2ccnc(Nc3ccc4c(c3)OCCO4)n2)cc1`
a: 5.69

q: Next entry: `COc1ccc2ncnc(Nc3ccc(OCc4ccccc4)cc3)c2c1`
a: -1.08

q: Next entry: `CCS(=O)(=O)c1ccc(OC)c(Nc2ncc(-c3cccc(OC)c3)o2)c1`
a: 3.12

q: Next entry: `CC(C)c1ccc(Nc2nccc(-c3cnn4ncccc34)n2)cc1`
a: 0.34

q: Next entry: `Oc1cccc(-c2nc(-c3ccccc3)[nH]c2-c2ccncc2)c1`
a: 1.32

q: Next entry: `COc1cc2ncnc(Nc3ccc(C)c(O)c3)c2cc1OC`
a: 3.56

q: Next entry: `CCn1c(-c2nonc2N)nc2c(C#CC(C)(C)O)nc(OCCNC)cc21`
a: 2.29

q: Next entry: `Cc1cc(Cl)cc2c1NC(=O)C2=NNc1ccc(S(N)(=O)=O)cc1`
a: 1.33

====

- Study system: Tyrosine-protein kinase Srms (Homo sapiens);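 also: reported value is a mean of the inhibition readings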
- Run parameters: at 0.1 µM
Measurement kind: inhibition (%)
Please reply with the bare figure in % and do not write the unit itself.

q: Returns the measured inhibition for the input compound. Input: `C[C@@H](Oc1cc(-n2cnc3ccc(OCC4CCN(C)CC4)cc32)sc1C(N)=O)c1ccccc1C(F)(F)F`
a: 1.72

q: Next entry: `Nc1nccc(C#Cc2cncnc2Nc2ccc(OCc3cccc(F)c3)c(Cl)c2)n1`
a: 0.29

q: Next entry: `Cc1ccc(O)cc1Nc1ccnc2ccc(S(C)(=O)=O)cc12`
a: 27.4

q: Next entry: `COc1cc2ncnc(Nc3ccc(C)c(O)c3)c2cc1OC`
a: 2.71

q: Next entry: `FC(F)(F)c1ccc(-c2nn3ncccc3c2-c2ccnc(Nc3ccc4c(c3)OCCO4)n2)cc1`
a: 8.49

q: Next entry: `c1ccc(Nc2ncc(-c3ccccc3)o2)cc1`
a: 0.17

q: Next entry: `Cc1ccc(C(=O)NC2CC2)cc1-c1ccc2[nH]ncc2c1`
a: -1.77

q: Next entry: `COc1cc2ncn(-c3cc(OCc4ccccc4S(C)(=O)=O)c(C#N)s3)c2cc1OC`
a: 2.07

q: Next entry: `Cc1cc(O)cc(C)c1/C=C/c1cncc(C(=O)N(C)C)c1`
a: 0.98

q: Next entry: `CC(C)c1ccc2c(c1)NC(=O)/C2=N/Nc1ccc(S(N)(=O)=O)cc1`
a: 0.59

====

Would you mind telling me the reported inhibition of each entry?
- System: Tyrosine-protein kinase ABL1 (Homo sapiens), P00519 [Q252H]
- Run parameters: at 1 µM
Please reply with the bare figure in % and do not write the unit itself.

q: Returns the measured inhibition for the input compound. Input: `N#Cc1cccc(Nc2nccc(-c3cnn4ncccc34)n2)c1`
a: 57

q: Next entry: `c1ccc(Nc2ncc(-c3ccccc3)o2)cc1`
a: 13.7

q: Next entry: `COc1cccc(-n2ncc3c(N/N=C/c4ccc(C)cc4)ncnc32)c1`
a: 81.4

q: Next entry: `CCS(=O)(=O)c1ccc(OC)c(Nc2ncc(-c3cccc(OC)c3)o2)c1`
a: 86.5

q: Next entry: `CC(C)c1ccc(Nc2nccc(-c3cnn4ncccc34)n2)cc1`
a: 11.6

q: Next entry: `NC(=O)c1sc(-n2cnc3ccccc32)cc1OCc1ccccc1Br`
a: 4.86

q: Next entry: `C[C@@H](Oc1cc(-n2cnc3ccc(OC[C@@H](O)CO)cc32)sc1C(N)=O)c1ccccc1Cl`
a: 8.32

q: Next entry: `CCOc1nccc2c1nc(-c1nonc1N)n2CC`
a: 6.45

q: Next entry: `CN(C)c1cc2c(Nc3ccc4c(cnn4Cc4ccccc4)c3)ncnc2cn1`
a: 3.55

q: Next entry: `COc1cc2ncnc(Nc3ccc4c(cnn4Cc4ccccc4)c3)c2cc1OC`
a: 7.1

q: Next entry: `NS(=O)(=O)c1ccc(-c2cc3ccncc3cc2OCc2ccccc2)cc1`
a: 4.61
